Provenance of the data: patent US20240132525A1

# assay protocol: Dog LM (liver microsome) assay
# Type: in vitro ADME
# setup conditions: Table 3a; predicted clearance as percent of liver blood flow, 1 μM, 1 mg/ml microsomal protein
Listed next: entries and their corresponding Dog LM QH.

molecule	Dog LM QH
N#C[C@@H]1CCOC[C@H]1Nc1nc(Nc2cc(Cl)c3c(c2)COB3O)ncc1C(F)(F)F (relative stereo)	39.7%
Cc1cnc(Nc2cc(Cl)c3c(c2)COB3O)nc1N[C@@H]1COCC[C@H]1C#N (single isomer, unassigned) [Example 031a]	<19.9%
Cc1cnc(Nc2cc(Cl)c3c(c2)COB3O)nc1NC1CCCC[C@@H]1C#N (single isomer, unassigned) [Example 010a]	<19.9%
N#C[C@@H]1CCCC[C@H]1Nc1nc(Nc2ccc3c(c2)COB3O)ncc1Cl (relative stereo)	<19.9%
CC1=Cc2cc(Nc3ncc(C)c(NC4COCCC4C#N)n3)ccc2OB1O (centres unmarked)	50.4%
Cc1cnc(Nc2cc(F)c3c(c2)C=CB(O)O3)nc1N[C@@H]1COCC[C@H]1C#N (single isomer, unassigned) [Example 036a]	33.1%
Cc1cnc(Nc2cc3c(c(C(F)(F)F)c2)B(O)OC3)nc1N[C@H]1COC[C@@H]1C#N (single isomer, unassigned) [Example 043a]	<19.9%
Cc1cnc(Nc2cc3c(c(C4CC4)c2)B(O)OC3)nc1N[C@@H]1COCC[C@H]1C#N (relative stereo)	<19.9%
Cc1cnc(Nc2ccc3c(c2)COB3O)nc1N[C@@H]1CCCC[C@H]1C#N (relative stereo)	<19.9%
Cc1cnc(Nc2cc3c(c(C(F)(F)F)c2)B(O)OC3)nc1N[C@H]1COC[C@@H]1C#N (single isomer, unassigned) [Example 043b]	<19.9%
Cc1cnc(Nc2cc(F)c3c(c2)COB3O)nc1NC1COCCC1C#N (racemic)	<19.9%
Cc1cnc(Nc2ccc3c(c2)COB3O)nc1N[C@@H]1COCC[C@H]1C#N (single isomer, unassigned) [Example 026b]	<19.9%
Cc1cnc(Nc2cc3c(c(C(F)(F)F)c2)B(O)OC3)nc1N[C@@H]1COCC[C@H]1C#N (single isomer, unassigned) [Example 033a]	<19.9%
Cc1cnc(Nc2cc3c(c(C(F)(F)F)c2)B(O)OC3)nc1N[C@H]1CCCC[C@@H]1C#N (single isomer, unassigned) [Example 011a]	<19.9%
Cc1cnc(Nc2cc3c(c(C(F)(F)F)c2)B(O)OC3)nc1N[C@H]1CCCC[C@@H]1C#N (single isomer, unassigned) [Example 011b]	<19.9%
Cc1cnc(Nc2cc(Cl)c3c(c2)COB3O)nc1N[C@@H]1CCCOC1 [Example 030a]	<19.9%
COc1cc(Nc2ncc(C)c(N[C@H]3COCC[C@@H]3C#N)n2)cc2c1B(O)OC2 (single isomer, unassigned) [Example 044b]	<19.9%
COc1cc(Nc2ncc(C)c(N[C@H]3COCC[C@@H]3C#N)n2)cc2c1B(O)OC2 (single isomer, unassigned) [Example 044a]	34.9%
Cc1cnc(Nc2cc(F)c3c(c2)C=CB(O)O3)nc1N[C@@H]1COCC[C@H]1C#N (single isomer, unassigned) [Example 036b]	37.3%
Cc1cnc(Nc2cc(Cl)c3c(c2)C(C(C)C)=CB(O)O3)nc1N[C@H]1COCC[C@@H]1C#N (single isomer, unassigned) [Example 040a]	32.9%
Cc1cnc(Nc2cc(Cl)c3c(c2)COB3O)nc1N[C@@H]1CCC[C@H]1C#N (single isomer, unassigned) [Example 003b]	<19.9%
Cc1cnc(Nc2cc3c(c(C(F)(F)F)c2)B(O)OC3)nc1N[C@@H]1CCC[C@H]1C#N (relative stereo)	<19.9%
Cc1cnc(Nc2cc3c(c(C(F)(F)F)c2)OB(O)C=C3)nc1N[C@@H]1COCC[C@H]1C#N (relative stereo)	19.9%
Cc1cnc(Nc2cc(C)c3c(c2)COB3O)nc1N[C@@H]1COCC[C@H]1C#N (relative stereo)	30.1%
Cc1cc(Nc2ncc(Cl)c(N[C@H]3COCC[C@@H]3C#N)n2)cc2c1B(O)OC2 (single isomer, unassigned) [Example 041a]	<19.9%
Cc1cc(Nc2ncc(Cl)c(N[C@H]3COCC[C@@H]3C#N)n2)cc2c1B(O)OC2 (single isomer, unassigned) [Example 041b]	<19.9%

###

Listed next: entries and their corresponding Inhibition PDE4B @ 1 μM.
# study target: PDE4B (Homo sapiens (Human), UniProt Q07343)
# Sequence (Q07343 whole entry, species assumed): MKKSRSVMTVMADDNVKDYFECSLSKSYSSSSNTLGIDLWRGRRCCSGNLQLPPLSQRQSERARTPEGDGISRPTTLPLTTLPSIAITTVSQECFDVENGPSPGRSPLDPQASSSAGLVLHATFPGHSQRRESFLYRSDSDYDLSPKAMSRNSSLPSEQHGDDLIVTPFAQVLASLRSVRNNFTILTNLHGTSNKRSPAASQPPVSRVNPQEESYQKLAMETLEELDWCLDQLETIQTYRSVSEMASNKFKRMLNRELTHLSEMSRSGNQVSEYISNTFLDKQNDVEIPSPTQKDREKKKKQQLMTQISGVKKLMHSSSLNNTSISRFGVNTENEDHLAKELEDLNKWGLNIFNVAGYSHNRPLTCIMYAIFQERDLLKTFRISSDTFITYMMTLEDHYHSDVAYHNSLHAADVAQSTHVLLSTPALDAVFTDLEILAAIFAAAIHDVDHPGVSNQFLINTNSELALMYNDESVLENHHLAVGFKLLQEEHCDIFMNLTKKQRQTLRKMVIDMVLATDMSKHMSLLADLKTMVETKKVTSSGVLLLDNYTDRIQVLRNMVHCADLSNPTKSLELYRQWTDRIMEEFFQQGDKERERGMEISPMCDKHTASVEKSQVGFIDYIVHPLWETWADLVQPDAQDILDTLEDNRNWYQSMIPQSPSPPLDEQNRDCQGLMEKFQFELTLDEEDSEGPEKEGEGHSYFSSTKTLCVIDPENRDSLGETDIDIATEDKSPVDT
# assay protocol: PDE4B inhibition
# Assay type: biochemical
# setup conditions: Table 3b, comparator compounds; 1 μM
value type: Inhibition PDE4B @ 1 μM (%)

Cc1cc(Nc2ncc(Cl)c(NC3CCCC3)n2)cc2c1B(O)OC2 30
Cc1cnc(Nc2ccc3c(c2)COB3O)nc1NC1CCCCC1 13
Cc1cnc(Nc2cc(C)c3c(c2)COB3O)nc1NC1CCCC1 37
Cc1cnc(Nc2ccc3c(c2)COB3O)nc1NC1CCCC1 86
CCC(CC)Nc1nc(Nc2cc(C)c3c(c2)COB3O)ncc1C 22
Cc1cnc(Nc2ccc3c(c2)C(C)(C)OB3O)nc1NC1CCCC1 40
OB1OCc2cc(Nc3ncc(C(F)(F)F)c(NC4CCCC4)n3)ccc21 90
OB1OCc2cc(Nc3nccc(NC4CCCCC4)n3)ccc21 53
CCC(CC)Nc1nc(Nc2ccc3c(c2)COB3O)ncc1C 90

###

Listed next: entries and their corresponding pIC50.
# study target: JAK1 (Homo sapiens (Human), UniProt P23458)
# Sequence (P23458 whole entry, species assumed): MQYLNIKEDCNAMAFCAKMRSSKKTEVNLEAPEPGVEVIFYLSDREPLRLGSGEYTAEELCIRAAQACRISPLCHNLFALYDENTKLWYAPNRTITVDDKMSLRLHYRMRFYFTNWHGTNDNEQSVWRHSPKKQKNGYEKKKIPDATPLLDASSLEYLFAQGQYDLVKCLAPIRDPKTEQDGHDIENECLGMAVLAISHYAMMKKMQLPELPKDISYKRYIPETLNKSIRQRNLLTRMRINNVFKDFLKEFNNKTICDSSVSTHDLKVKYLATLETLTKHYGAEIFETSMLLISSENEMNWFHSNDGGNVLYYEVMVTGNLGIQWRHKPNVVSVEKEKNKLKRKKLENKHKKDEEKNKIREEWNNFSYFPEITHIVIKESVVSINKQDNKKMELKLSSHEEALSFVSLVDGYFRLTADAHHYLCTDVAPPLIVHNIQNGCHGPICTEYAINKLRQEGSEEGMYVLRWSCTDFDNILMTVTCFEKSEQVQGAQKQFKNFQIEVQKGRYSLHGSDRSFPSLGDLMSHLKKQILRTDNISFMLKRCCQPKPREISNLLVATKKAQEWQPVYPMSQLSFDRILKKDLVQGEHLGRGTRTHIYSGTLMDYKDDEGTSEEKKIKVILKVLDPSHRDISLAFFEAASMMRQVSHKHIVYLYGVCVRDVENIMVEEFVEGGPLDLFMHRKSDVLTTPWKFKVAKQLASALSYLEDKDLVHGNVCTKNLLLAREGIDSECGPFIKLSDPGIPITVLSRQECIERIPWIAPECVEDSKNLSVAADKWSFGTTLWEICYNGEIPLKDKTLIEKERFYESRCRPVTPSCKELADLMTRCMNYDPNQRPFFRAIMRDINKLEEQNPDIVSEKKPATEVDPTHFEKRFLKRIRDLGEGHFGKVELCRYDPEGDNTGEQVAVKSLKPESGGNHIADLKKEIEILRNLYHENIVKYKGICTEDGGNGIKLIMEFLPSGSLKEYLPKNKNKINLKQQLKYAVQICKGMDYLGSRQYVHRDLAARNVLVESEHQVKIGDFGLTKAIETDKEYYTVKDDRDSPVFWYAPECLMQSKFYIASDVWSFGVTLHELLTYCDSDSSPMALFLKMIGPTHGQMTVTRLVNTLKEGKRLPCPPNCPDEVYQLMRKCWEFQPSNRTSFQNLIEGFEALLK
# assay protocol: Biochemical kinase assay (33P-ATP filter-binding), JAK1
# setup conditions: Table 3a; read-out: IC50 JAK1
pIC50: −log10 of the molar value. Counter-ions that a name gives are not always drawn.

compound	pIC50
N#C[C@@H]1CCOC[C@H]1Nc1nc(Nc2ccc3c(c2)COB3O)ncc1Cl (relative stereo)	9.47
Cc1cnc(Nc2ccc3c(c2)C(C(C)C)=CB(O)O3)nc1N[C@H]1COCC[C@@H]1C#N (single isomer, unassigned) [Example 039b]	6.66
CC1=Cc2cc(Nc3ncc(C)c(NC4COCCC4C#N)n3)ccc2OB1O (centres unmarked)	8.85
Cc1cnc(Nc2cc(C#N)c3c(c2)COB3O)nc1N[C@@H]1COCC[C@H]1C#N (relative stereo)	9.30
Cc1cnc(Nc2ccc3c(c2)COB3O)nc1N[C@@H]1CCC[C@H]1C#N (relative stereo)	8.96
COc1cc(Nc2ncc(C)c(N[C@H]3COCC[C@@H]3C#N)n2)cc2c1B(O)OC2 (single isomer, unassigned) [Example 044b]	7.47
Cc1cnc(Nc2cc3c(c(C4CC4)c2)B(O)OC3)nc1N[C@@H]1COCC[C@H]1C#N (relative stereo)	9.40
Cc1cnc(Nc2ccc3c(c2)COB3O)nc1N[C@@H]1CCCC[C@H]1C#N (relative stereo)	9.52
Cc1cnc(Nc2ccc3c(c2)C(C)(C)OB3O)nc1N[C@@H]1CCCC[C@H]1C#N (relative stereo) [Example 014, hydrochloride]	8.85
Cc1cnc(Nc2cc(C)c3c(c2)COB3O)nc1N[C@@H]1COCC[C@H]1C#N (relative stereo)	9.22
Cc1cnc(Nc2cc(Cl)c3c(c2)C(C(C)C)=CB(O)O3)nc1N[C@H]1COCC[C@@H]1C#N (single isomer, unassigned) [Example 040b]	8.96
Cc1cnc(Nc2cc(Cl)c3c(c2)COB3O)nc1N[C@@H]1CCC[C@H]1C#N (single isomer, unassigned) [Example 003b]	8.30
Cc1cnc(Nc2cc3c4c(c2)OCCOB4OC3)nc1NC1CCCCC1C#N (centres unmarked)	8.59

###

# study target: JAK1 (Homo sapiens (Human), UniProt P23458)
# assay protocol: Biochemical kinase assay (33P-ATP filter-binding), JAK1
# setup conditions: Table 3a; read-out: IC50 JAK1
Checkbox rule: IC50 lower than 0.9 nM = true; IC50 not lower than 0.9 nM = false.

molecule	group label
N#C[C@@H]1CCCC[C@H]1Nc1nc(Nc2cc(Cl)c3c(c2)COB3O)ncc1Cl (relative stereo) [Example 019]	true
Cc1cnc(Nc2cc(C#N)c3c(c2)COB3O)nc1N[C@H]1CCCC[C@@H]1C#N (single isomer, unassigned) [Example 012a]	true
Cc1cnc(Nc2cc3c(c(C(F)(F)F)c2)B(O)OC3)nc1N[C@H]1CCCC[C@@H]1C#N (single isomer, unassigned) [Example 011b]	false
Cc1cnc(Nc2cc3c(c(C(F)(F)F)c2)B(O)OC3)nc1N[C@@H]1COCC[C@H]1C#N (single isomer, unassigned) [Example 033a]	true
Cc1cnc(Nc2cc(Cl)c3c(c2)COB3O)nc1N[C@H]1CCCOC1 [Example 030b]	false

###

# Test system: GM-CSF/pSTAT5
# assay protocol: Cytokine function assay GM-CSF/pSTAT5 in lysed whole blood cells
# Format: cell-based
# setup conditions: Table 3b, comparator compounds; read-out: IC50 GM-CSF
value type: IC50 (µM)

Cc1cc(Nc2ncc(Cl)c(NC3CCCC3)n2)cc2c1B(O)OC2 0.927
OB1OCc2cc(Nc3ncc(F)c(NC4CCCCC4)n3)ccc21 10
OB1OCc2cc(Nc3ncc(Cl)c(NC4CCCC4)n3)ccc21 5.35
Cc1cnc(Nc2cc(Cl)c3c(c2)COB3O)nc1NC1CCCC1 3.74
